Organism: Homo sapiens
Test: Neuroprotective activity against tetracycline removal-induced oxidative stress in human MC65 cells assessed as reduction in accumulation of intracellular ROS at 1 uM incubated for 48 hrs by DCFH-DA staining-based fluorescence analysis relative to control
Assay type: functional, cell-based
Calls of active or inactive are those of the source. The calls are words filed in the database; no cut-off is given here.
measured metric: Activity

# example entries with known answers
>  <mol smiles>
COc1cc(/C=C/C(=O)C(Cc2cn(CCC(=O)NCCCN3CCN(CCCNC(=O)CCC(=O)NCCCN4CCN(CCCNC(=O)CO[C@H]5CC[C@@]6(C)C(=CC[C@H]7[C@@H]8CC[C@H]([C@H](C)CCCC(C)C)[C@@]8(C)CC[C@@H]76)C5)CC4)CC3)nn2)C(=O)/C=C/c2ccc(O)c(OC)c2)ccc1O

>  <Activity>
Active

$$$$
>  <mol smiles>
COc1cc(/C=C/C(=O)C(Cc2cn(CCCCC(=O)NCCCN3CCN(CCCNC(=O)CCN4CCN(CCCO[C@H]5CC[C@@]6(C)C(=CC[C@H]7[C@@H]8CC[C@H]([C@H](C)CCCC(C)C)[C@@]8(C)CC[C@@H]76)C5)CC4)CC3)nn2)C(=O)/C=C/c2ccc(O)c(OC)c2)ccc1O

>  <Activity>
Active

$$$$
>  <mol smiles>
COc1cc(/C=C/C(=O)C(Cc2cn(CCC(=O)NCCCN3CCN(CCCNC(=O)CO[C@H]4CC[C@@]5(C)C(=CC[C@H]6[C@@H]7CC[C@H]([C@H](C)CCCC(C)C)[C@@]7(C)CC[C@@H]65)C4)CC3)nn2)C(=O)/C=C/c2ccc(O)c(OC)c2)ccc1O

>  <Activity>
Active

$$$$
>  <mol smiles>
COc1cc(/C=C/C(=O)C(Cc2cn(CCNC(=O)CCC(=O)NCCCN3CCN(CCCNC(=O)CCN4CCN(CCCO[C@H]5CC[C@@]6(C)C(=CC[C@H]7[C@@H]8CC[C@H]([C@H](C)CCCC(C)C)[C@@]8(C)CC[C@@H]76)C5)CC4)CC3)nn2)C(=O)/C=C/c2ccc(O)c(OC)c2)ccc1O

>  <Activity>
Active

$$$$
>  <mol smiles>
COc1cc(/C=C/C(=O)C(Cc2cn(CCNC(=O)CCC(=O)NCCCN3CCN(CCCNC(=O)CO[C@H]4CC[C@@]5(C)C(=CC[C@H]6[C@@H]7CC[C@H]([C@H](C)CCCC(C)C)[C@@]7(C)CC[C@@H]65)C4)CC3)nn2)C(=O)/C=C/c2ccc(O)c(OC)c2)ccc1O

>  <Activity>
Active

$$$$
>  <mol smiles>
COc1cc(/C=C/C(=O)C(Cc2cn(CCCCNC(=O)CCC(=O)NCCCN3CCN(CCCNC(=O)CO[C@H]4CC[C@@]5(C)C(=CC[C@H]6[C@@H]7CC[C@H]([C@H](C)CCCC(C)C)[C@@]7(C)CC[C@@H]65)C4)CC3)nn2)C(=O)/C=C/c2ccc(O)c(OC)c2)ccc1O

>  <Activity>
Active

$$$$
>  <mol smiles>
COc1cc(/C=C/C(=O)C(Cc2cn(CCCCNC(=O)CCC(=O)NCCCN3CCN(CCCNC(=O)CCN4CCN(CCCO[C@H]5CC[C@@]6(C)C(=CC[C@H]7[C@@H]8CC[C@H]([C@H](C)CCCC(C)C)[C@@]8(C)CC[C@@H]76)C5)CC4)CC3)nn2)C(=O)/C=C/c2ccc(O)c(OC)c2)ccc1O

>  <Activity>
Active

$$$$
>  <mol smiles>
COc1cc(/C=C/C(=O)C(Cc2cn(CCC(=O)NCCCN3CCN(CCCNC(=O)CCN4CCN(CCCO[C@H]5CC[C@@]6(C)C(=CC[C@H]7[C@@H]8CC[C@H]([C@H](C)CCCC(C)C)[C@@]8(C)CC[C@@H]76)C5)CC4)CC3)nn2)C(=O)/C=C/c2ccc(O)c(OC)c2)ccc1O

>  <Activity>
Active

$$$$
>  <mol smiles>
COc1cc(/C=C/C(=O)C(Cc2cn(CCCCC(=O)NCCCN3CCN(CCCNC(=O)CCC(=O)NCCCN4CCN(CCCNC(=O)CO[C@H]5CC[C@@]6(C)C(=CC[C@H]7[C@@H]8CC[C@H]([C@H](C)CCCC(C)C)[C@@]8(C)CC[C@@H]76)C5)CC4)CC3)nn2)C(=O)/C=C/c2ccc(O)c(OC)c2)ccc1O

>  <Activity>
Active

$$$$

For the compound COc1cc(/C=C/C(=O)C(Cc2cn(CCCCC(=O)NCCCN3CCN(CCCNC(=O)CO[C@H]4CC[C@@]5(C)C(=CC[C@H]6[C@@H]7CC[C@H]([C@H](C)CCCC(C)C)[C@@]7(C)CC[C@@H]65)C4)CC3)nn2)C(=O)/C=C/c2ccc(O)c(OC)c2)ccc1O , give its reported Activity.
Active
